System: mice
assay.summary: Activity on the spontaneous motility in mice (inhibition, photoelectric barriers, Friebel, Sommer and Varadan)
Format: in vivo, SPF-NMRI-mice, female
test.settings: Mus musculus, po, after 90-105 minutes, read-out: ED50 (50% inhibition of spontaneous motility)
measurement.type: ED50

Would you please look over these solved cases?
| chemical.string | endpoint.result |
| --- | --- |
| CC(C)Cc1ccc([C@]2(O)C(C)(C)[C@@H](N3CCN(c4ccccn4)CC3)C2(C)C)cc1 | > 3 mg/kg |
| CCCCc1ccc([C@]2(O)C(C)(C)[C@@H](N3CCN(c4ccccn4)CC3)C2(C)C)cc1 | 3 mg/kg |
| CCCCc1ccc([C@]2(O)C(C)(C)[C@@H](N3CCN(c4ccccc4)CC3)C2(C)C)cc1 | > 3 mg/kg |
| COc1ccc(N2CCN([C@H]3C(C)(C)[C@](O)(c4ccc(O)cc4)C3(C)C)CC2)cc1 | 7.5 mg/kg |
| CC(C)c1ccc([C@]2(O)C(C)(C)[C@@H](N3CCN(c4ccccc4)CC3)C2(C)C)cc1 | 5 mg/kg |

Next compound, please.
GET /values?readout=ED50&item= COc1ccc([C@]2(O)C(C)(C)[C@@H](N3CCN(c4ccccc4)CC3)C2(C)C)cc1OC
22 mg/kg
